Values were extracted from patent US20250345443A1.

- measurement-target: hTLR7 (human Toll-like receptor 7) (Homo sapiens)
- Construct: host or cells: HEK-Blue hTLR7 cells
- Sequence (Q9NYK1 27-1049): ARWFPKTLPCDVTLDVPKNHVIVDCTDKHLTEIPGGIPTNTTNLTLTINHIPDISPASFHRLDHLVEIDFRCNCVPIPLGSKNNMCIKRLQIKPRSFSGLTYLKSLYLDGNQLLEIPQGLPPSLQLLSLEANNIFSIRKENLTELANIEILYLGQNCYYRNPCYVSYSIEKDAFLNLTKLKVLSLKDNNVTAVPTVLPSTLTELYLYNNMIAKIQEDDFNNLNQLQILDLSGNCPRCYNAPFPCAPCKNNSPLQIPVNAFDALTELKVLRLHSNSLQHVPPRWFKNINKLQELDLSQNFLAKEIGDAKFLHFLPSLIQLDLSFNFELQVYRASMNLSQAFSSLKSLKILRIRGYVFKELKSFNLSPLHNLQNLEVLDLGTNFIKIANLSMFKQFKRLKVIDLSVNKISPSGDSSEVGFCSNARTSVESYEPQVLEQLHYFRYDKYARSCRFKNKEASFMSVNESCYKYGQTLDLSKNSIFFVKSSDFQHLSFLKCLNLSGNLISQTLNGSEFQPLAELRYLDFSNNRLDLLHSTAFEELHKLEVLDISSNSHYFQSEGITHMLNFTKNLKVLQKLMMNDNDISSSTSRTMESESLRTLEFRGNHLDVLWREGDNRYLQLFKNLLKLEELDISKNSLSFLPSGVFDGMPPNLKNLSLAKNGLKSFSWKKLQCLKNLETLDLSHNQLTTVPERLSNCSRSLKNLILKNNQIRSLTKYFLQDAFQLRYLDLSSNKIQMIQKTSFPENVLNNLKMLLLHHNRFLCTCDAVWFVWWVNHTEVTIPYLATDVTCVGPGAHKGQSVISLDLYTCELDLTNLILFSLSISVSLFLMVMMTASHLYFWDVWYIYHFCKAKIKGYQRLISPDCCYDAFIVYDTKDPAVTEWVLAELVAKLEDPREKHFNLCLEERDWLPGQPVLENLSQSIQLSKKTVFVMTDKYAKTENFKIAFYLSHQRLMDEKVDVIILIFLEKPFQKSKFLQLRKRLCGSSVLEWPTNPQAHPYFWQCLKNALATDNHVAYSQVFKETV
- protocol-description: Agonistic activity of compounds on hTLR7 (HEK-Blue hTLR7 cells, QUANTI-Blue OD650)
- Type: cell-based
- assay-conditions: 24 h
recorded-metric: log10(EC50) (log10 of the value in nM)
Plainly stated, the numbers are log10 of EC50 given in nM.

Use these answered entries as a reference point.
Retrieve log10(EC50) on hTLR7 (human Toll-like receptor 7) (Homo sapiens); query CCOCc1nc2c(N)nc3cccc(CCCCCN)c3c2s1 [compound 18]
3.03

Retrieve log10(EC50) on hTLR7 (human Toll-like receptor 7) (Homo sapiens); query CCCN(Cc1ccc(N)cc1)C(=O)C1=Cc2ccc(-c3cncc(CO)c3)cc2N=C(N)C1 [compound 10]
3.80

Retrieve log10(EC50) on hTLR7 (human Toll-like receptor 7) (Homo sapiens); query CCCCc1nc2c(N)nc3cccc(CCCCCCN)c3c2s1 [compound 17]
2.28

Retrieve log10(EC50) on hTLR7 (human Toll-like receptor 7) (Homo sapiens); query CCCN(Cc1cccc(N)c1)C(=O)C1=Cc2ccc(-c3cncc(CO)c3)cc2N=C(N)C1 [compound 13]
4.16

Retrieve log10(EC50) on hTLR7 (human Toll-like receptor 7) (Homo sapiens); query CCCCc1nc2c(N)nc3cccc(CCCCCN)c3c2o1 [compound 19]
2.17

Retrieve log10(EC50) on hTLR7 (human Toll-like receptor 7) (Homo sapiens); query CCCCc1nc2c(N)nc3cccc(CCCCCN)c3c2s1 [compound 14]
2.28

Retrieve log10(EC50) on hTLR7 (human Toll-like receptor 7) (Homo sapiens); query CCCCc1nc2c(N)nc3cccc(CCCCN)c3c2o1 [compound 20]
1.87

Retrieve log10(EC50) on hTLR7 (human Toll-like receptor 7) (Homo sapiens); query CCCN(Cc1ccc(N)cc1)C(=O)C1=Cc2ccc(-c3ccc4c(c3)C(=O)OC4)cc2N=C(N)C1 [compound 12]
3.22

Here is another compound to look at.
Retrieve log10(EC50) on hTLR7 (human Toll-like receptor 7) (Homo sapiens); query CCCCc1nc2c(N)nc3cccc(CCCCN)c3c2s1 [compound 16]
2.64
